MCC values for the compounds below.
- System: Vero
- Method notes: Tested for cytotoxic activity in African green monkey kidney cells (Vero)
- Type: functional
- Protocol conditions: Chlorocebus sabaeus
Record the value in µg/mL, omitting the unit from your answer.

Use the examples below as a reference point.
S=C(N/N=C(/c1ccccn1)C12CC3CC(CC(C3)C1)C2)NNC(=S)c1ccc(Cl)cc1Cl : 16
C/C(=N/N=C(/S)N/N=C(\S)c1ccc(Cl)cc1Cl)C12CC3CC(CC(C3)C1)C2 : 16
C/C(=N/N=C(/S)NN)C12CC3CC(CC(C3)C1)C2 : 80
C/C(=N/N=C(\N)S)C12CC3CC(CC(C3)C1)C2 : 400
N/C(S)=N\N=C(\c1ccccn1)C12CC3CC(CC(C3)C1)C2 : 16
S=C(N/N=C(/c1ccccn1)C12CC3CC(CC(C3)C1)C2)NNC(=S)c1ccc(Cl)cc1 : 80

Then there is this compound:
Problem: Given the compound N/N=C(\S)N/N=C(/c1ccccn1)C12CC3CC(CC(C3)C1)C2 , what is its reported MCC?
Result: 80

====

- Test system: E6SM
- Method notes: Tested for antiviral activity against VSV-virus in human embryonic skin muscle fibroblasts
- Type: functional
- Protocol conditions: Muscle tissue
MIC values for the compounds below.

Use the examples below as a reference point.
S=C(N/N=C(/c1ccccn1)C12CC3CC(CC(C3)C1)C2)NNC(=S)c1ccc(Cl)cc1 : > 16 µg/mL
C/C(=N/N=C(\N)S)C12CC3CC(CC(C3)C1)C2 : > 400 µg/mL
C/C(=N/N=C(/S)NN)C12CC3CC(CC(C3)C1)C2 : > 16 µg/mL
C/C(=N/N=C(/S)N/N=C(\S)c1ccc(Cl)cc1)C12CC3CC(CC(C3)C1)C2 : > 40 µg/mL

Then there is this compound:
Problem: Given the compound N/N=C(\S)N/N=C(/c1ccccn1)C12CC3CC(CC(C3)C1)C2 , what is its reported MIC?
Result: > 16 µg/mL

====

- System: E6SM
- Method notes: Tested for antiviral activity against herpes simplex virus type 1(KOS) in E6SM cell line(human embryonic skin-muscle fibroblasts)
- Format: functional
MIC values for the compounds below.
Record the value in µg/mL, omitting the unit from your answer.

Use the examples below as a reference point.
O=c1[nH]c(=O)n([C@H]2C[C@H](O)[C@@H](CO)O2)cc1/C=C/Br [BRIVUDINE] : 0.05
Nc1nc2c(ncn2COCCO)c(=O)[nH]1 [ACYCLOVIR] : 0.08
Nc1nc2c(ncn2COC(CO)CO)c(=O)[nH]1 [GANCICLOVIR] : 0.0064

Then there is this compound:
Problem: Given the compound C/C(=N/N=C(\N)S)C12CC3CC(CC(C3)C1)C2 , what is its reported MIC?
Result: 240

====

- Test system: Klebsiella pneumoniae
- Method notes: Tested for the antimicrobial activity against Klebsiella pneumoniae ATCC 13883
- Format: functional
Observable: MIC

Problem: Given the compound C/C(=N/N=C(/S)NN)C12CC3CC(CC(C3)C1)C2 , what is its reported MIC?
Result: > 3760 µg/mL

Problem: Given the compound S=C(N/N=C(/c1ccccn1)C12CC3CC(CC(C3)C1)C2)NNC(=S)c1ccc(Cl)cc1Cl , what is its reported MIC?
Result: > 1880 µg/mL

Problem: Given the compound S=C(N/N=C(/c1ccccn1)C12CC3CC(CC(C3)C1)C2)NNC(=S)c1ccc(Cl)cc1 , what is its reported MIC?
Result: > 2000 µg/mL

Problem: Given the compound N/C(S)=N\N=C(\c1ccccn1)C12CC3CC(CC(C3)C1)C2 , what is its reported MIC?
Result: > 3180 µg/mL

Problem: Given the compound C/C(=N/N=C(\N)S)C12CC3CC(CC(C3)C1)C2 , what is its reported MIC?
Result: > 3980 µg/mL

Problem: Given the compound C/C(=N/N=C(/S)N/N=C(\S)c1ccc(Cl)cc1)C12CC3CC(CC(C3)C1)C2 , what is its reported MIC?
Result: > 2300 µg/mL

Problem: Given the compound N/N=C(\S)N/N=C(/c1ccccn1)C12CC3CC(CC(C3)C1)C2 , what is its reported MIC?
Result: > 3040 µg/mL

Problem: Given the compound C/C(=N/N=C(/S)N/N=C(\S)c1ccc(Cl)cc1Cl)C12CC3CC(CC(C3)C1)C2 , what is its reported MIC?
Result: > 2130 µg/mL

====

- Tested on: MOLT-4
- Method notes: Tested for the inhibitory concentration against cell growth of Tcell leukemic cell line MOLT-4 using MTT assay
- Assay type: functional
- Protocol conditions: Homo sapiens
TGI values for the molecules below.

Use the examples below as a reference point.
C/C(=N/N=C(\N)S)C12CC3CC(CC(C3)C1)C2 : 9.3 µM
C/C(=N/N=C(/S)N/N=C(\S)c1ccc(Cl)cc1Cl)C12CC3CC(CC(C3)C1)C2 : 100 µM
N/N=C(\S)N/N=C(/c1ccccn1)C12CC3CC(CC(C3)C1)C2 : 100 µM

Problem: Given the molecule S=C(N/N=C(/c1ccccn1)C12CC3CC(CC(C3)C1)C2)NNC(=S)c1ccc(Cl)cc1 , what is its reported TGI?
Result: 100 µM

Problem: Given the molecule C/C(=N/N=C(/S)N/N=C(\S)c1ccc(Cl)cc1)C12CC3CC(CC(C3)C1)C2 , what is its reported TGI?
Result: 100 µM

Problem: Given the molecule C/C(=N/N=C(/S)NN)C12CC3CC(CC(C3)C1)C2 , what is its reported TGI?
Result: 100 µM

Problem: Given the molecule S=C(N/N=C(/c1ccccn1)C12CC3CC(CC(C3)C1)C2)NNC(=S)c1ccc(Cl)cc1Cl , what is its reported TGI?
Result: 100 µM

Problem: Given the molecule CC[C@]1(O)C[C@@H]2CN(CCc3c([nH]c4ccccc34)[C@@](C(=O)OC)(c3cc4c(cc3OC)N(C)[C@H]3[C@@](O)(C(=O)OC)[C@H](OC(C)=O)[C@]5(CC)C=CCN6CC[C@]43[C@@H]65)C2)C1 , what is its reported TGI?
Result: < 0.00025 µM

====

MIC values for the compounds below.
- Test system: HEL
- Method notes: Tested for antiviral activity against thymidine kinase deficient Varicella zoster virus in human embryonic lung fibroblasts
- Assay type: functional

Use the examples below as a reference point.
N/C(S)=N\N=C(\c1ccccn1)C12CC3CC(CC(C3)C1)C2 : > 20 µg/mL
O=c1[nH]c(=O)n([C@H]2C[C@H](O)[C@@H](CO)O2)cc1/C=C/Br : > 50 µg/mL

Problem: Given the compound C/C(=N/N=C(\N)S)C12CC3CC(CC(C3)C1)C2 , what is its reported MIC?
Result: > 2 µg/mL

Problem: Given the compound S=C(N/N=C(/c1ccccn1)C12CC3CC(CC(C3)C1)C2)NNC(=S)c1ccc(Cl)cc1Cl , what is its reported MIC?
Result: > 2 µg/mL

Problem: Given the compound C/C(=N/N=C(/S)N/N=C(\S)c1ccc(Cl)cc1Cl)C12CC3CC(CC(C3)C1)C2 , what is its reported MIC?
Result: > 2 µg/mL

Problem: Given the compound S=C(N/N=C(/c1ccccn1)C12CC3CC(CC(C3)C1)C2)NNC(=S)c1ccc(Cl)cc1 , what is its reported MIC?
Result: > 2 µg/mL

Problem: Given the compound C/C(=N/N=C(/S)NN)C12CC3CC(CC(C3)C1)C2 , what is its reported MIC?
Result: > 20 µg/mL

Problem: Given the compound N/N=C(\S)N/N=C(/c1ccccn1)C12CC3CC(CC(C3)C1)C2 , what is its reported MIC?
Result: > 20 µg/mL

Problem: Given the compound C/C(=N/N=C(/S)N/N=C(\S)c1ccc(Cl)cc1)C12CC3CC(CC(C3)C1)C2 , what is its reported MIC?
Result: > 2 µg/mL

====

- Test system: HuT78
- Method notes: Tested for the inhibitory concentration against cell growth of human leukemic cell line HuT78
- Type: functional
GI50 values for the molecules below.
Record the value in µM, omitting the unit from your answer.

Use the examples below as a reference point.
S=C(N/N=C(/c1ccccn1)C12CC3CC(CC(C3)C1)C2)NNC(=S)c1ccc(Cl)cc1 : 8
C/C(=N/N=C(/S)N/N=C(\S)c1ccc(Cl)cc1Cl)C12CC3CC(CC(C3)C1)C2 : 8.1

Then there is this molecule:
Problem: Given the molecule N/C(S)=N\N=C(\c1ccccn1)C12CC3CC(CC(C3)C1)C2 , what is its reported GI50?
Result: 2.4

====

- System: HuT78
- Method notes: Tested for the inhibitory concentration against cell growth of human leukemic cell line HuT78
- Type: functional
Observable: GI50 (µM)
Record the value in µM, omitting the unit from your answer.

Use the examples below as a reference point.
N/N=C(\S)N/N=C(/c1ccccn1)C12CC3CC(CC(C3)C1)C2 : 100
S=C(N/N=C(/c1ccccn1)C12CC3CC(CC(C3)C1)C2)NNC(=S)c1ccc(Cl)cc1Cl : 23
C/C(=N/N=C(\N)S)C12CC3CC(CC(C3)C1)C2 : 2.3
C/C(=N/N=C(/S)NN)C12CC3CC(CC(C3)C1)C2 : 20.5

Then there is this molecule:
Problem: Given the molecule C/C(=N/N=C(/S)N/N=C(\S)c1ccc(Cl)cc1)C12CC3CC(CC(C3)C1)C2 , what is its reported GI50?
Result: 100
